system: DCAMKL1; construct: gene DCLK1; settings: concentration: 1 μM, replicates: in singlicate; n = 1;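 further: KINOMEscan kinase panel screen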
Please respond with reported %Inh for every item in the list.
Write the value in % as a bare number.

%Inh for `Cl.c1ccc(-c2ccc3c(Nc4ccc5[nH]ccc5c4)ccnc3c2)nc1` ?
0

Field entry: `Cc1ccc(C(=O)Nc2ccc(Nc3ccnc4cc(-c5nccs5)ccc34)cc2O)cc1.Cl`
0

Field entry: `c1ccc(-c2n[nH]cc2Nc2ccnc3ccccc23)nc1`
23

Field entry: `COC(=O)Nc1nc2cc(Oc3ccc(NC(=O)Nc4cc(C(F)(F)F)ccc4F)cn3)ccc2[nH]1.Cl.Cl`
11

Field entry: `CSc1cccc2c(-c3ccncn3)c(-c3ccc(F)cc3)nn12`
5

Field entry: `O=C(Nc1cccc(-c2nn3ccccc3c2-c2ccnc(Nc3cccc(C(F)(F)F)c3)n2)c1)c1c(F)cccc1F`
49

Field entry: `Cn1cc(-c2[nH]c3cc(NC(=O)[C@H](N)C4CCCCC4)cc4c3c2C=NNC4=O)cn1`
46

Field entry: `CCc1ccc(-c2ccc3c(c2)-c2c(cnn2C)S(=O)(=O)N3C)cc1`
0

Field entry: `CCCCc1nn2ncccc2c1-c1ccnc(Nc2ccc(N3CCN(C)CC3)cc2)n1`
17

Field entry: `Cc1cccc(Nc2nc(N[C@H]3CCNC3)ncc2C(N)=O)c1.Cl`
16

Field entry: `Nc1ncc(-c2cccnc2)c2scc(-c3ccc4c(c3)CCN4C(=O)Cc3ccccc3)c12`
20

Field entry: `COc1ccc(CNC(=O)NC2CCN(c3ccnc(Nc4ccc(F)cc4)n3)CC2)cc1`
0

Field entry: `Cl.NC(=O)c1cccc(Nc2nccc(Nc3ccc(Oc4c(Cl)cccc4Cl)c(Cl)c3)n2)c1`
0

Field entry: `c1ccc(-c2cnc3nccnn23)cc1`
0

Field entry: Cl.Cl.NCC(C(=O)Nc1cc(Br)c(-c2ccnc3[nH]ccc23)s1)c1ccccc1 (stereo not drawn)
9

Field entry: `C[C@@H]1CC[C@@H](C(=O)Nc2ccccc2)CN1c1cc(-c2ccc3c(N)n[nH]c3c2)nc(N)n1`
7

Field entry: `COc1cccc(C(=O)Nc2cccc(Oc3ccc4nc(NC(=O)C5CC5)cn4n3)c2)c1`
20

Field entry: `Cc1ccc(S(=O)(=O)Nc2ccc(Nc3nccc(Nc4cccc5[nH]ncc45)n3)cc2)cc1`
12
